Target: wt Shaker Kv channel (Shaker H4, Δ6-46) (Drosophila melanogaster, UniProt P08510, DEL6-46)
Sequence (P08510 other isoform, or with tags, fused parts or gaps DEL6-46): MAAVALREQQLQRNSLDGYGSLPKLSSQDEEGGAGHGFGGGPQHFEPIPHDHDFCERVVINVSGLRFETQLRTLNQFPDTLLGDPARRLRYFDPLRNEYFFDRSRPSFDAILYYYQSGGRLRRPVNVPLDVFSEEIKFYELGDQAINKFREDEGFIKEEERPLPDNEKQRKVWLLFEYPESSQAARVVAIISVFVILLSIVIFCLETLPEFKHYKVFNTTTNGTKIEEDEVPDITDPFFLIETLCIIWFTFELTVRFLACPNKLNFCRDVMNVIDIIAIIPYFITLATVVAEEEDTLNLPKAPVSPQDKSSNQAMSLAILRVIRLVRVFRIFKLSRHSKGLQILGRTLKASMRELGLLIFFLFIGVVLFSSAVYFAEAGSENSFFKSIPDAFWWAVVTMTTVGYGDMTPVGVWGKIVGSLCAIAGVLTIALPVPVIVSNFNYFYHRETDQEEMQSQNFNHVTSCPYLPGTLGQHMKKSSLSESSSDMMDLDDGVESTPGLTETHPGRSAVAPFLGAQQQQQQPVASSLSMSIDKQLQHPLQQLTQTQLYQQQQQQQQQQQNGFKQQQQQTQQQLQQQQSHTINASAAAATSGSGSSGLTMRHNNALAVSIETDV
Assay: Two-electrode voltage clamp, G(V) shift on wt Shaker Kv channel expressed in Xenopus laevis oocytes
Conditions: pH 7.4, concentration-response of G(V) shift, read-out: c1/2 (half-maximal concentration)
OBSERVATION TYPE: EC50 (µM)
One number for each entry, in µM.

Q. Can you share its EC50? I mean this compound: CC(C)c1ccc2c(c1)CC[C@H]1[C@](C)(COS(=O)(=O)O)CCC[C@]21C
A. 44

###

Target: 3R Shaker Kv channel (M356R/A359R) (Drosophila melanogaster, UniProt P08510, A359R/DEL6-46/M356R)
Sequence (P08510 other isoform, or with tags, fused parts or gaps DEL6-46/M356R/A359R): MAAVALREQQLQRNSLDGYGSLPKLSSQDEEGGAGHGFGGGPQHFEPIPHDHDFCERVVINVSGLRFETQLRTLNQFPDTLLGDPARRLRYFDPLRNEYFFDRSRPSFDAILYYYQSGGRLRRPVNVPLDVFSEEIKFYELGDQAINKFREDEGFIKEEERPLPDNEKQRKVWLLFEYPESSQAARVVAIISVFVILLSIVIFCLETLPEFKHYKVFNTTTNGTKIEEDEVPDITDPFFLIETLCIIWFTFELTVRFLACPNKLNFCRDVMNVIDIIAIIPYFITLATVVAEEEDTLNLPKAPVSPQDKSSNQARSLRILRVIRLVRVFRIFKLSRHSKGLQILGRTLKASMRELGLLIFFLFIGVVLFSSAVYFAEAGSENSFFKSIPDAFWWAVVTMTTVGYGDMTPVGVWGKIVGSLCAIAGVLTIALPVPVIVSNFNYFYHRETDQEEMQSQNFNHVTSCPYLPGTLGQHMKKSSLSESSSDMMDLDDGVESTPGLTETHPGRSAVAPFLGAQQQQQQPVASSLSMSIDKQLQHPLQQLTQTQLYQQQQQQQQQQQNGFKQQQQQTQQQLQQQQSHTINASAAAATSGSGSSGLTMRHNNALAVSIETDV
Test: in vitro
Assay type: cell-based
Details: pH 7.4, 100 μM, mean
OBSERVATION TYPE: G(V) shift (mV)
One number for each entry, in mV.

Worked examples follow.
CC(C)c1ccc2c(c1)CC[C@H]1[C@](C)(C(=O)NCP(=O)(O)O)CCC[C@]21C	−4.94
CC(C)c1ccc2c(c1)CCC1[C@](C)(CC(=O)O)CCC[C@]21C (stereo partly drawn)	−11.04

Proceeding to the next compound to report its G(V) shift.
Q. Can you share its G(V) shift? I mean this compound: CC(C)c1ccc2c(c1)CC[C@H]1[C@](C)(C(=O)NCCCC(=O)O)CCC[C@]21C
A. −4.80
